system: CAKI-1 renal; test: NCI-60 one-dose screen, 48 h (100 = growth as untreated, 0 = no growth, -100 = all killed); conditions: 10 µM
The panel holds about 83,000 compounds, 20% with a hit somewhere; the sample as a whole holds those more often.
QUANTITY NAME: growth (%)
Use % as the unit, but write only the number.

Example cases with answers are listed next.
COMPOUND	UNIT TEXT	growth
C#CC(C)(O)c1ccc(Cl)cc1 (stereo unspecified)	%	103
C/C(=N/NC(N)=O)c1ccco1	%	102
COC(=O)c1ccc(NC(=O)CCl)cc1	%	83.9

IN: Please look up its growth: "Nc1ccc(NC(=O)c2cccc(N)c2)cc1"
OUT: 56.4

IN: Please look up its growth: "O=C1C=C(Nc2ccc([N+](=O)[O-])cc2)c2ccccc2C1=O"
OUT: 67.9

IN: Please look up its growth: CN(C)c1ccc(CNC(C(=O)c2ccccc2)c2ccccc2)cc1 (stereo unspecified)
OUT: 102

---

tested on: NCI-H226 lung; assay: NCI-60 one-dose screen, 48 h (100 = growth as untreated, 0 = no growth, -100 = all killed); details: 10 µM
Compounds without any hit were thinned out: in the full panel of roughly 83,000, 20% have a hit.
# growth values compiled below
Use % as the unit, but write only the number.

Example cases with answers are listed next.
COMPOUND	growth, %
C[C@@H](c1ccccc1)[C@@H](C(=O)O)c1ccccc1	98.8
COc1ccc(C(C)C=O)cc1 (stereo not drawn)	111

Now look at this entry.
IN: Please look up its growth: "c1ccc(Sc2ccccc2)cc1"
OUT: 103

---

tested on: OVCAR-5 ovarian; assay: NCI-60 one-dose screen, 48 h (100 = growth as untreated, 0 = no growth, -100 = all killed); conditions: 10 µM
Compounds without any hit were thinned out: in the full panel of roughly 83,000, 20% have a hit.
# growth values compiled below
Use % as the unit, but write only the number.

Example cases with answers are listed next.
MOLECULE	UNIT TEXT	growth
C#C[C@H]1CCCCCC1O (some centres not stated)	%	115
O=C(OCC(O)C1OC(c2ccccc2)OC(COC(=O)c2ccccc2)C1O)c1ccccc1 (configuration not stated)	%	105
Cc1cc(OCCO)cc(C)c1Cl	%	115

IN: Please look up its growth: CSC[C@H](NC(=O)COc1cccc2cnccc12)C(=O)NC(Cc1ccccc1)C(O)C(=O)N1CSC[C@H]1C(=O)NC(C)(C)C (some centres not stated)
OUT: 91.7

IN: Please look up its growth: "O=c1cc(-c2ccccc2)[nH]c(=S)[nH]1"
OUT: 98.4

IN: Please look up its growth: "Cc1ncc(C#N)c(N)n1"
OUT: 99.5

IN: Please look up its growth: "CCC/C=C(/C(C)=O)C(=O)OCC"
OUT: 92.7

IN: Please look up its growth: "CC(C)(O)C#CC#CC(C)(C)O"
OUT: 97.8

IN: Please look up its growth: "CC(=O)Nc1cccc(Cl)c1C"
OUT: 103

---

# growth values compiled below
tested on: HT29 colon; test: NCI-60 one-dose screen, 48 h (100 = growth as untreated, 0 = no growth, -100 = all killed); settings: 10 µM
The panel holds about 83,000 compounds, 20% with a hit somewhere; the sample as a whole holds those more often.
Use % as the unit, but write only the number.

Example cases with answers are listed next.
COMPOUND	growth [%]
CN(C)C(C)(C)CC(C)(C)C	119
CC(=O)/C(Cc1ccccc1)=N/O	92.9
CCc1nn(Cc2ccccc2)c2nc(C)c(CCc3ccccc3)c(Cl)c12	88.6
O=C(O)C(c1ccccc1)C(O)c1ccccc1 (stereo unspecified)	96.5
O=C(N/N=C/c1ccccc1O)Nc1nn[nH]n1	104

Now look at this entry.
IN: Please look up its growth: "CN(C)c1ccc(C(c2ccc(O)cc2)c2ccc(N(C)C)cc2)cc1"
OUT: 86.2
